Give protein stability index for every item shown.
B1: ALDH8A1 (parent)
chain: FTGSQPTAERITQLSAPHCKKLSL

Variants of: B1
Protocol Notes: protein stability index of a GFP-peptide fusion (GPS, HEK-293T) (PSI 1-6); higher = more stable;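 also: lentivirally expressed fusions sorted by FACS into six bins by GFP to DsRed ratio, PSI derived from sequencing read proportions per bin multiplied by bin number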
Condition: c terminus: a fixed tail appended
Answers are plain numbers.

As a guide, the following entries are already answered.
- A16Y: 2.05
- K20R: 1.78
- S23K: 2.03
- G3A: 2.88
- T12Y: 2.69
- S23Q: 2.35
- I11E: 2.73
- T7V: 2

I would be grateful if you could provide protein stability index for each of the following entries.
1. A16E
2. I11N
3. H18I
4. Q13V
5. S23H

Marked response:
1: 2.26; 2: 2.4; 3: 2.55; 4: 1.69; 5: 2.02

I would be grateful if you could provide protein stability index for each of the following entries.
1. A8Y
2. L14Q
3. S23Y
4. L14R
5. G3T
6. S23L
7. K20Y
8. P6C

Marked response:
1: 2.27; 2: 2.57; 3: 2.66; 4: 2.37; 5: 2.69; 6: 1.81; 7: 2.5; 8: 2.42

I would be grateful if you could provide protein stability index for each of the following entries.
1. S4K
2. S4L
3. K21G
4. E9N
5. T7H
6. A8C
7. T12W

Marked response:
1: 2.6; 2: 2.1; 3: 2.01; 4: 1.99; 5: 2.02; 6: 2.09; 7: 3.11

I would be grateful if you could provide protein stability index for each of the following entries.
1. F1H
2. S15N
3. P17Y

Marked response:
1. 4.18
2. 1.91
3. 2.05

I would be grateful if you could provide protein stability index for each of the following entries.
1. P6E
2. S4E
3. S4A
4. I11V
5. H18P
6. L14A
7. Q5N
8. Q5V

Marked response:
2.79
3.18
2.56
2.44
2.93
2.26
2.33
2.38

I would be grateful if you could provide protein stability index for each of the following entries.
1. I11W
2. K21N
3. T7Y

Marked response:
1. 2.08
2. 2.05
3. 2.61

I would be grateful if you could provide protein stability index for each of the following entries.
1. R10E
2. E9K
3. A16W
4. R10D
5. S23G
6. E9L
7. T7K

Marked response:
1. 2.51
2. 2.06
3. 1.45
4. 2.31
5. 1.97
6. 3.09
7. 2.32

I would be grateful if you could provide protein stability index for each of the following entries.
1. P17G
2. Q13T

Marked response:
1. 2.25
2. 2.3
